test: clinical; details: human, in vivo, tmax, median (minimum, maximum)
quantityKind: Tmax (h)

Cn1c(N)c(NC(=O)NCCN)c[n+]1CC1=C(C(=O)O)N2C(=O)[C@@H](NC(=O)/C(=N\OC(C)(C)C(=O)O)c3nsc(N)n3)[C@H]2SC1 [Ceftolozane]: 1.02

====

assay: clinical; details: human, in vivo, Cmax, mean (CV %)
quantityKind: Cmax (µg/mL)

Cn1c(N)c(NC(=O)NCCN)c[n+]1CC1=C(C(=O)O)N2C(=O)[C@@H](NC(=O)/C(=N\OC(C)(C)C(=O)O)c3nsc(N)n3)[C@H]2SC1: 69.1

====

The entries below are paired with their reported Tmax.
experiment: clinical; details: both sexes, human, in vivo
quantityKind: Tmax

C[C@]1(Cn2ccnn2)[C@H](C(=O)O)N2C(=O)C[C@H]2S1(=O)=O: 40 min
Cn1c(N)c(NC(=O)NCCN)c[n+]1CC1=C(C(=O)O)N2C(=O)[C@@H](NC(=O)/C(=N\OC(C)(C)C(=O)O)c3nsc(N)n3)[C@H]2SC1: 40 min

====

assay: clinical; conditions: both, human, in vivo, Half-Life, median (range)
# key: entry, value: half-life
quantityKind: half-life (min)

C[C@]1(Cn2ccnn2)[C@H](C(=O)O)N2C(=O)C[C@H]2S1(=O)=O: 253
Cn1c(N)c(NC(=O)NCCN)c[n+]1CC1=C(C(=O)O)N2C(=O)[C@@H](NC(=O)/C(=N\OC(C)(C)C(=O)O)c3nsc(N)n3)[C@H]2SC1: 2430

====

experiment: clinical; settings: human, in vivo
quantityKind: AUC(0-t) (µg·h/mL)

Cn1c(N)c(NC(=O)NCCN)c[n+]1CC1=C(C(=O)O)N2C(=O)[C@@H](NC(=O)/C(=N\OC(C)(C)C(=O)O)c3nsc(N)n3)[C@H]2SC1: 172

====

assay: clinical; conditions: both, human, in vivo, t1/2 during the HD period (median)
quantityKind: half-life (h)

Cn1c(N)c(NC(=O)NCCN)c[n+]1CC1=C(C(=O)O)N2C(=O)[C@@H](NC(=O)/C(=N\OC(C)(C)C(=O)O)c3nsc(N)n3)[C@H]2SC1: 1.13

====

test: Pharmacokinetics of ceftolozane/tazobactam in healthy adults, single and multiple IV doses; settings: human, plasma, intravenous, 1.5 g, tmax, median (minimum, maximum), 1.5 g q8h, healthy adults; Day 1
quantityKind: Tmax (h)

C[C@]1(Cn2ccnn2)[C@H](C(=O)O)N2C(=O)C[C@H]2S1(=O)=O: 1.02

====

assay: clinical; conditions: both, human, in vivo, CL, mean (CV %)
quantityKind: clearance (mL/min)

Cn1c(N)c(NC(=O)NCCN)c[n+]1CC1=C(C(=O)O)N2C(=O)[C@@H](NC(=O)/C(=N\OC(C)(C)C(=O)O)c3nsc(N)n3)[C@H]2SC1: 6.67

====

Catalogue of Cmax values
assay: clinical; details: both, human, in vivo, Cmax
quantityKind: Cmax (ng/mL)

Cn1c(N)c(NC(=O)NCCN)c[n+]1CC1=C(C(=O)O)N2C(=O)[C@@H](NC(=O)/C(=N\OC(C)(C)C(=O)O)c3nsc(N)n3)[C@H]2SC1: 41100
C[C@]1(Cn2ccnn2)[C@H](C(=O)O)N2C(=O)C[C@H]2S1(=O)=O: 14900

====

experiment: clinical; settings: both, human, in vivo, AUC0-∞
quantityKind: AUC(0-inf) (ng·h/mL)

Cn1c(N)c(NC(=O)NCCN)c[n+]1CC1=C(C(=O)O)N2C(=O)[C@@H](NC(=O)/C(=N\OC(C)(C)C(=O)O)c3nsc(N)n3)[C@H]2SC1: 99800
C[C@]1(Cn2ccnn2)[C@H](C(=O)O)N2C(=O)C[C@H]2S1(=O)=O: 29400
